- protocol: folding enthalpy; higher = less favourable; fluorescence melt of hairpins on a sequencing array, two-state fit
- condition_summary: sodium 0.088 M
# folding enthalpy per entry
Just the number please, in kcal/mol, no unit attached.

{"columns": ["sequence", "measured_metric", "measured_result"],
 "data": [
  ["TCACGGAAACGTGA (((((....)))))", "folding enthalpy", -19.9]
]}

We now examine a further sequence.
Measured folding enthalpy, GATCTCTTGAGAGATC ((((((....)))))) : -32.4

---

# Tm per entry
- protocol: melting temperature; fluorescence melt of hairpins on a sequencing array, two-state fit, raised by 9.35 °C to match UV melts
- condition_summary: sodium 0.088 M
Just the number please, in °C, no unit attached.

{"columns": ["sequence", "Tm, °C"],
 "data": [
  ["GAACACGAAAGTGTGTTC ((((((....)))..)))", 50],
  ["GCCTGCGGAAACGCAGAC (.(((((....))))).)", 50],
  ["GCCTCCGAAAGGAGTGGC ((((((....)))..)))", 50.3],
  ["GGTCGGGCGAAAGCCACC (((..(((....))))))", 34],
  ["GTGCTCGAAAGAGCCAC ((((((....))).)))", 49],
  ["GATCCAGGCTGGATC ((((((...))))))", 53],
  ["CATCAGAAATGATG (((((....)))))", 41.7],
  ["GTGACACGAAAGTGCAC (((.(((....))))))", 53.2]
]}

Measured Tm, GCGGTCCACCGC ((((....)))) : 68.5

---

- protocol: folding enthalpy; higher = less favourable; fluorescence melt of hairpins on a sequencing array, two-state fit
- condition_summary: sodium 0.088 M
folding enthalpy below -100 kJ/mol gives not met; folding enthalpy at or above it gives met.

# example entries with known answers
{"columns": ["sequence", "group"],
 "data": [
  ["GATCTTCATAAAGATC ((((((....))))))", "not met"],
  ["GATCCCAAAGGGGATC ((((((....))))))", "not met"],
  ["GGACCACCGAAAGGTTCC (((..(((....))))))", "met"],
  ["GATCACTTCGGTGATC ((((((....))))))", "not met"],
  ["GCTCGGGGAAACTCGAGC (((((.(....).)))))", "not met"]
]}

Identify whether the reported folding enthalpy of the following sequence is -100 kJ/mol or greater: GAGTCAGCGAAAGCTCTC (((..(((....))))))
met

Identify whether the reported folding enthalpy of the following sequence is -100 kJ/mol or greater: CGATTCGGAAACGATCG (((.(((....))))))
not met

Identify whether the reported folding enthalpy of the following sequence is -100 kJ/mol or greater: GGACGCGAAAGCGATTCC ((((((....)))..)))
met

Identify whether the reported folding enthalpy of the following sequence is -100 kJ/mol or greater: GGGAGAGGAAACTCTCTC (.(((((....))))).)
met

---

- protocol: folding enthalpy; higher = less favourable; fluorescence melt of hairpins on a sequencing array, two-state fit
- condition_summary: sodium 0.088 M
# folding enthalpy per entry
Just the number please, in kcal/mol, no unit attached.

{"columns": ["sequence", "folding enthalpy / kcal/mol"],
 "data": [
  ["GACAACGAAAGTTGGTC ((((((....))).)))", -19.7]
]}

Measured folding enthalpy, GGACTGGGAAACCAGCCC ((.((((....)))).)) : -20.5

Measured folding enthalpy, GAGTAACGAAAGTTCCTC (((.(((....))).))) : -19.8

Measured folding enthalpy, GTCGGAGAAATCCGAC ((((((....)))))) : -35.7

Measured folding enthalpy, GCAATCGGAAACGATCAC (..((((....))))..) : -12

Measured folding enthalpy, GACGACGAAAGTCATGTC ((((((....)))..))) : -15.2

Measured folding enthalpy, GCAAGCTCGAAAGAGTGC (((..(((....)))))) : -16.9

Measured folding enthalpy, GATCTTCAAAAAGATC ((((((....)))))) : -27.3

Measured folding enthalpy, GTAGATGGAAACATCTAC (((((((....))))))) : -41.3

Measured folding enthalpy, GGGACCGAAAGGTTGCCC ((((((....)))..))) : -14.5

Measured folding enthalpy, GCGAACAGTCGC ((((....)))) : -16.4

Measured folding enthalpy, GATCCCGCCCGGGATC ((((((....)))))) : -32.8

Measured folding enthalpy, GGACGCGAAAGCGAGTCC ((((((....)))..))) : -21
